Numbers sourced from patent US6548495B2.

Could you please report measured melting point for the items listed next?
Could you give me the number in °C? Just the number is fine.

Quick note, melting point for "O=C1CC(c2cccc(-n3cncn3)c2)=Nc2cc(Cl)c(C(F)(F)F)cc2N1" landed at 258

Quick note, melting point for "CCOc1cc2c(cc1C(F)(F)F)NC(=O)CC(c1cccc(-n3ccnn3)c1)=N2" landed at 215

Quick note, melting point for "O=C1CC(c2cccc(-c3cc(CO)no3)c2)=Nc2cc(N3CCOCC3)c(C(F)(F)F)cc2N1" landed at 196

Quick note, melting point for "Cc1cc2c(cc1C(F)(F)F)NC(=O)CC(c1cccc(-n3nncc3CNC3CC3)c1)=N2" landed at 181

Quick note, melting point for "O=C1CC(c2cccc(-n3ccnn3)c2)=Nc2cc(Cl)c(C(F)(F)F)cc2N1" landed at 219

Quick note, melting point for "Cc1cc2c(cc1C(F)(F)F)NC(=O)CC(c1cccc(-n3cncn3)c1)=N2" landed at 241

----------
Could you please report measured melting point for the items listed next?
Could you give me the number in °C? Just the number is fine.

Quick note, melting point for "O=C1CC(c2cccc(-n3ccnc3)c2)=Nc2ccc(-n3cccc3)cc2N1" landed at 220

Quick note, melting point for "CN(C)Cc1cnnn1-c1cccc(C2=Nc3cc(N4CCOCC4)c(C(F)(F)F)cc3NC(=O)C2)c1" landed at 180

Quick note, melting point for "CCOc1cc2c(cc1C(F)(F)F)NC(=O)CC(c1ccnc(C#N)c1)=N2" landed at 233

Quick note, melting point for "N#Cc1cccc(C2=Nc3cc(I)c(-n4cccc4)cc3NC(=O)C2)c1" landed at 215

----------
Could you please report measured Ki for the items listed next?
study.system: recombinant rat mGluR2 expressed in CHO cells (Rattus norvegicus, UniProt P31421)
Construct: membranes used
Sequence (P31421 19-872): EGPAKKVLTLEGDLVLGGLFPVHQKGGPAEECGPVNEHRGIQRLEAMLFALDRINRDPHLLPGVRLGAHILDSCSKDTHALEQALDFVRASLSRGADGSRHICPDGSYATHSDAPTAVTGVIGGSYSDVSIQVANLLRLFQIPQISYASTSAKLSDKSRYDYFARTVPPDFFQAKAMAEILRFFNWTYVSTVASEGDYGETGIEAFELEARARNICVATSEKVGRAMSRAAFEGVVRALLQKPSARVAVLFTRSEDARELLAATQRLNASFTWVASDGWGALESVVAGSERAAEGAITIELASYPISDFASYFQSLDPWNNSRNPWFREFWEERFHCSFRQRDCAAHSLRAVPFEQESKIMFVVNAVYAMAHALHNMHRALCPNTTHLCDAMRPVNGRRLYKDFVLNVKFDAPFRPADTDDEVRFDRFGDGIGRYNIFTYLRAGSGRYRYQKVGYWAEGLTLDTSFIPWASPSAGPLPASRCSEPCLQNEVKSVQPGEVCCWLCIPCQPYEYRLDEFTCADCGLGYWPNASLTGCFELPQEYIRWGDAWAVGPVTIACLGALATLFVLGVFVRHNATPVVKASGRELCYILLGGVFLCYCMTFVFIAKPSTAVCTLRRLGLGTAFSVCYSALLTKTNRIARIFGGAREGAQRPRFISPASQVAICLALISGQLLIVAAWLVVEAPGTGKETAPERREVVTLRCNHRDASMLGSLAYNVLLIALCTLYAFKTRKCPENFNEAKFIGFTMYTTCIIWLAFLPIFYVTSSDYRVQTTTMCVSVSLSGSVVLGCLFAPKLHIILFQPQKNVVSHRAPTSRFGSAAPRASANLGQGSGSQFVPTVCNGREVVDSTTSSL
protocol: [3H]-LY354740 binding on mGlu2 transfected CHO cell membranes (displacement binding assay)
condition.notes: displacement of 10 nM [3H]-LY354740, membranes of CHO cells expressing rat mGlu2, room temperature, 1 hour; Ki calculated from IC50 with the Cheng and Prusoff equation
Answer with the figure and its unit, nothing else.

Quick note, Ki for O=C1CC(c2cccc(-n3nncc3CNC3CC3)c2)=Nc2cc(Cl)c(C(F)(F)F)cc2N1 [Example 67] landed at 15.5 nM

Quick note, Ki for Cn1nccc1-c1cccc(C2=Nc3cc(N4CCOCC4)c(C(F)(F)F)cc3NC(=O)C2)c1 [Example 38] landed at 6 nM

Quick note, Ki for COc1cc2c(cc1-n1cccc1)NC(=O)CC(c1cccc(C#N)c1)=N2 [Example 17] landed at 44 nM

Quick note, Ki for Cc1cc2c(cc1C(F)(F)F)NC(=O)CC(c1cccc(-n3nncc3CNC3CC3)c1)=N2 [Example 69] landed at 26 nM

Quick note, Ki for O=C1CC(c2cccc(-c3nc(CO)cs3)c2)=Nc2ccc(-n3cccc3)cc2N1 [Example 20] landed at 28 nM

Quick note, Ki for N#Cc1cccc(C2=Nc3ccc(-n4ccc(-c5ccccc5)c4)cc3NC(=O)C2)c1 [Example 12] landed at 75 nM

Quick note, Ki for N#Cc1cc(C2=Nc3cc(N4CCSCC4)c(C(F)(F)F)cc3NC(=O)C2)ccn1 [Example 42] landed at 0.9 nM

Quick note, Ki for CCOC(=O)c1ncoc1-c1cccc(C2=Nc3ccc(-n4cccc4)cc3NC(=O)C2)c1 [Example 23] landed at 29 nM
